Parameter: Kd. Scope: all listed entries.
- Study Target: Neutrophil elastase (NE) (human, UniProt P08246 30-267)
- Sequence (P08246 30-267): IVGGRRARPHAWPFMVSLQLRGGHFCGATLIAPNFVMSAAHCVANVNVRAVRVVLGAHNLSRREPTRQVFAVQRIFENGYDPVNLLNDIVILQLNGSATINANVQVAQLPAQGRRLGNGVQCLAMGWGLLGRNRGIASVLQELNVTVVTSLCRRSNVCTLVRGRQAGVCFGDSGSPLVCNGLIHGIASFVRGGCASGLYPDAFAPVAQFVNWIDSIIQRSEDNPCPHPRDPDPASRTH
- Procedure Summary: fluorescence polarization
Only the number, expressed in nM, is required.

These solved cases illustrate the format of a correct answer.
CCCAAGCUUAUUUAUUUAUUUAUUGCAGGUC (ssRNA) [AU RNA] :: 602
BB94 dsDNA (dsDNA) DNA 1: TCTGTGAGTTGAACGCACACATCACAAAGGAG DNA 2: CTCCTTTGTGATGTGTGCGTTCAACTCACAGA :: 607

API: the following record is the query input.
Ask: State the recorded Kd for this entry: TCTGTGAGTTGAACGCACACATCACAAAGGAG (ssDNA) [BB94 ssDNA]
Reply: 272
